assayed-system: cAMP and cAMP-inhibited cGMP 3',5'-cyclic phosphodiesterase 10A (Homo sapiens)
pIC50: −log10 of the molar value.

| compound | pIC50 |
| --- | --- |
| O=C(Nc1cc(-c2ccc(Cl)cn2)nn1CCO)c1nc(C2CC2)ccc1Nc1cncnc1 [US8470820, 26] | 8.80 |
| CNC(=O)c1cc2[nH]c(-c3ccccc3)nc2cc1NC(=O)c1nc(C2CC2)ccc1Nc1cncnc1 [Roche-Dataset for PDE10A, Compound 621] | 10.05 |
| Nc1ccc(C2CC2)nc1C(=O)Nc1cc2nc(-c3ccccc3)[nH]c2cc1C(=O)NC1COC1 [Roche-Dataset for PDE10A, Compound 243] | 7.96 |
| O=C(Nc1cnccc1C(=O)N1CC(F)(F)C1)c1nc(C2CC2)ccc1Nc1cncnc1 [Roche-Dataset for PDE10A, Compound 508] | 7.52 |
| O=C(Nc1ccnc(N2CCOCC2)c1)c1nc(C2CC2)cnc1Nc1cncnc1 [Roche-Dataset for PDE10A, Compound 815] | 8.07 |
| CC(C)c1cc(NC(=O)c2c(C(=O)N3CCC3)cnn2C)[nH]n1 [Roche-Dataset for PDE10A, Compound 1070] | 5.00 |
| CCOC(=O)c1cnn(C)c1C(=O)Nc1ccn2nc(N(C)CC)nc2c1 [Roche-Dataset for PDE10A, Compound 502] | 6.44 |
| Cc1c(Cl)cc(Cl)c2nc(CCc3nccn3C)nn12 [Roche-Dataset for PDE10A, Compound 972] | 6.78 |
| Cn1ncc(C(=O)N2CCC2)c1C(=O)Nc1ccc2cc(-c3ccccc3)nn2n1 [Roche-Dataset for PDE10A, Compound 1133] | 8.09 |
| CN(C)c1nc(/C=C/c2cccc(Br)n2)nc2ccc(Cl)cc12 [Roche-Dataset for PDE10A, Compound 574] | 6.55 |
| COc1cccc(-c2cn3c(n2)C[C@H](NC(=O)c2c(C(=O)N(C)C)cnn2C)CC3)c1 [Roche-Dataset for PDE10A, Compound 230] | 6.58 |
| CN(C)c1nc2cc(NC(=O)c3c(C(=O)N4CCCC4)cnn3C)ccn2n1 [Roche-Dataset for PDE10A, Compound 489] | 8.28 |
| CCOC(=O)c1cnn(C)c1C(=O)Nc1ccn2nc(-c3ccccc3OC)nc2c1 [Roche-Dataset for PDE10A, Compound 220] | 7.92 |
| Cn1ncc(Cl)c1C(=O)Nc1ccn2nc(-c3ccccc3)nc2c1 [Roche-Dataset for PDE10A, Compound 433] | 6.68 |
| CCN(C)C(=O)c1ncccc1NC(=O)c1nc(C2CC2)cnc1Nc1cncnc1 [US8703768, 199] | 8.23 |
| O=C(NCCN1CCCC1=O)c1nc(C2CC2)cnc1Nc1cncnc1 [Roche-Dataset for PDE10A, Compound 779] | 5.68 |
| O=C(NCCc1cccc(C(F)(F)F)c1)c1nc(C2CC2)cnc1Nc1cncnc1 [Roche-Dataset for PDE10A, Compound 491] | 7.08 |
| CN(C)c1nc2cc(NC(=O)c3c(C(=O)O)cnn3C)ccn2n1 [Roche-Dataset for PDE10A, Compound 768] | 6.01 |
| COCCNC(=O)c1cc2[nH]c(-c3ccccc3)nc2cc1NC(=O)c1cc(C2CC2)cnc1OC [Roche-Dataset for PDE10A, Compound 349] | 9.18 |
| CN(C)c1nc(OCc2nc(-c3ccccc3)cn2C)nc2ccc(Cl)cc12 [Roche-Dataset for PDE10A, Compound 89] | 8.43 |
| CCc1nc(CNC(=O)c2cnn(C)c2C(=O)Nc2ccn3cc(-c4ccccc4)nc3n2)cs1 [Roche-Dataset for PDE10A, Compound 601] | 5.95 |
| Cc1c(-c2ccccc2)nc2n1CC[C@@H](NC(=O)c1c(C(=O)N3CCC3)cnn1C)C2 [Roche-Dataset for PDE10A, Compound 173] | 7.96 |
| CNC(=O)c1cc2[nH]c(-c3ccccc3)nc2cc1NC(=O)c1c(Cl)c(C)nn1C [Roche-Dataset for PDE10A, Compound 358] | 7.66 |
| Cn1ncc2c1C(=O)N(c1ccn3nc(-c4cccc(F)c4)nc3c1)C2=O [Roche-Dataset for PDE10A, Compound 217] | 7.29 |
| O=C(Nc1ccnc(Cl)c1)c1ccc2cc(-c3ccccc3)nn2c1 [Roche-Dataset for PDE10A, Compound 310] | 7.43 |
| Cc1cn2nc(CCc3nc(N4CCCC4)nn3C)nc2cn1 [Roche-Dataset for PDE10A, Compound 678] | 6.03 |
| Cn1nc(-c2ccccn2)cc1NC(=O)c1ccn(CC(F)(F)F)n1 [Roche-Dataset for PDE10A, Compound 662] | 5.00 |

Reference for the values: BindingDB's records for doi:10.1007/s10822-022-00478-x
